assayed target: human insulin-like growth factor-II (IGF-II) (human, UniProt P01344 25-91)
assay explanation: cell-based or functional assay
readout name: % MAX Activation, mean (n = 2), IGF-II pTYR of hIGF-IR in NIH3T3 cells (%)
Please give a number only; it is taken to be in %.

| binder | unit symbol | val |
| --- | --- | --- |
| mAb 7.234.2 (antibody, V domains shown, Kappa light chain (L5/JK3); also called 7.234.1; 7_234_1) VH: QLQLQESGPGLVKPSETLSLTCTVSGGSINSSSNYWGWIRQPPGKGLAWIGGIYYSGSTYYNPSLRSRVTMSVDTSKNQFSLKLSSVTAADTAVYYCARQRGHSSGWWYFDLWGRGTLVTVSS VL: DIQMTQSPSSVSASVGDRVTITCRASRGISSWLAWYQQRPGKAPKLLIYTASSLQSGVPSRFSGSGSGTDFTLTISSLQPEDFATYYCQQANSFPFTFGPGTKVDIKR | % | 21.1 |
| mAb 7.34.1 (antibody, V domains shown, Fully human XenoMouse hybridoma mAb, lambda light chain (V1-13/JL2); also called ATCC PTA-7423) VH: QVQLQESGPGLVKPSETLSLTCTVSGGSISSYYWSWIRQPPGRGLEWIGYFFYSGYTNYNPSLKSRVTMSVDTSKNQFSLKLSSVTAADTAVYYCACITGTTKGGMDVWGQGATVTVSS VL: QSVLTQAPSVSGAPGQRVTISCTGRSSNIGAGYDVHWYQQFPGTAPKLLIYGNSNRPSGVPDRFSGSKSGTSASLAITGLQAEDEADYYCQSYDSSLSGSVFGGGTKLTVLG | % | 21.5 |
| mAb 7.159.2 (antibody, V domains shown, Fully human XenoMouse hybridoma mAb, lambda light chain (V1-19/JL2); Sister clones 7.159.1 and 7.159.2 are said to be identical; also called 7.159.1; 7_159_1) VH: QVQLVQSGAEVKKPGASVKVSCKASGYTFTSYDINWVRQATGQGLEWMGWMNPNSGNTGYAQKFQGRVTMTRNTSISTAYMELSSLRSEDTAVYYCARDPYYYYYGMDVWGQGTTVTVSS VL: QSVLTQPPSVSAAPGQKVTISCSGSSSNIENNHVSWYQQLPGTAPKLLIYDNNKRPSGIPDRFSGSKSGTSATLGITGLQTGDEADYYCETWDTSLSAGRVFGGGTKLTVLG | % | 28.6 |

Let's switch to this binder now.
Prompt: Supply recorded % MAX Activation, mean (n = 2), IGF-II pTYR of hIGF-IR in NIH3T3 cells for mAb 7.251.3 (antibody, V domains shown, Fully human XenoMouse hybridoma mAb, lambda light chain (V1-13/JL2); also called ATCC PTA-7422) VH: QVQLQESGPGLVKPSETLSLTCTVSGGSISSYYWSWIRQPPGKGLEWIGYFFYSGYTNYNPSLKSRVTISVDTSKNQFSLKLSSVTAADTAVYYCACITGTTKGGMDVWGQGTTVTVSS VL: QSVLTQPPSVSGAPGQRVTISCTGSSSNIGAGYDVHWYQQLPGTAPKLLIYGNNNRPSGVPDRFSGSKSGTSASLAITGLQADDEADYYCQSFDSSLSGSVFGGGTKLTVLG here.
Completion: 15.9
